molecular target: TNF-alpha (UniProt P01375 77-233); assay: graphene FET
Sequence (P01375 77-233): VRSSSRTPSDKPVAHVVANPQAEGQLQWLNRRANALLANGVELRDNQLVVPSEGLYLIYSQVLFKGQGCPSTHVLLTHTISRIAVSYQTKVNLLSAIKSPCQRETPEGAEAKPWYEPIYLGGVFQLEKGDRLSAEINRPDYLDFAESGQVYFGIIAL
pKd: −log10 of the molar value.
readout_kind: pKd

{"binder": "TGGTGGATGGCGCAGTCGGCGACAA (ssDNA, 5'-NH2 (coupled to PASE on graphene)) [VR11]", "readout_kind": "pKd", "observed": 7.85}
